# Test Summary: basal MM1S mitochondrial membrane potential changes, profiling panel, cell-based, JC-1 fluorescence, 24 h, 100 nL compound (AID 1170); note: test concentration not given here
# Measurement Conditions: higher = more signal
Measured Quantity: z-score

{"Molecule": "CCN1C(=O)[C@H]2[C@H]3[C@H](O)[C@H](O)CC(=NOCC[C@@H]4C=C[C@H](OC(C)=O)[C@@H](COC(C)=O)O4)[C@@H]3CC[C@H]2C1=O", "Recorded Number": -0.306}
{"Molecule": "CCc1cc2c(nc1CC)CCN(CCC(C)=NOCC[C@@H]1C=C[C@H](OC(C)=O)[C@@H](COC(C)=O)O1)C2", "Recorded Number": -0.13}
{"Molecule": "CN1CCc2nc(-c3ccccc3)c(-c3ccccc3)cc2C1", "Recorded Number": -0.201}
{"Molecule": "COc1ccc(O[C@H]2C=C[C@@H](c3ccccc3)O[C@@H]2COC(=O)NCc2cccc3ccccc23)cc1", "Recorded Number": -0.225}
{"Molecule": "CCc1cc2c(nc1CC)CCN(CCC(C)=NO[C@@H]1O[C@H](COC(C)=O)[C@@H](OC(C)=O)[C@H](OC(C)=O)[C@H]1OC(C)=O)C2", "Recorded Number": 0.0201}
{"Molecule": "CCOC(=O)[C@H](Cc1ccccc1)NC(=O)CCC1CC(OC(=O)NCc2cccc3ccccc23)CC2(CCCC(COC(=O)NCCOc3ccccc3)O2)O1 (some centres undefined)", "Recorded Number": -0.883}
{"Molecule": "C[C@@H](c1ccccc1)N1C(=O)[C@H]2[C@H]3[C@H](O)[C@H](O)CC(=NOC[C@@H](O)COCc4ccco4)[C@H]3CC[C@H]2C1=O", "Recorded Number": -0.0829}
{"Molecule": "CCOC(=O)[C@H](Cc1ccccc1)NC(=O)CCC1CC(OC(=O)NCCc2ccc(F)cc2)CC2(CCCC(COC(=O)NCc3cccc(C(F)(F)F)c3)O2)O1 (some centres undefined)", "Recorded Number": 0.464}
{"Molecule": "C=CC[C@@H]1C=C[C@H](ON=C2C[C@@H](O)[C@@H](O)[C@@H]3[C@@H]4C(=O)N(CC)C(=O)[C@@H]4CC[C@@H]23)[C@@H](CO)O1", "Recorded Number": -0.354}
{"Molecule": "O=C1[C@H]2[C@H]3[C@H](O)[C@H](O)CC(=NOC[C@@H](O)COCc4ccco4)[C@@H]3CC[C@H]2C(=O)N1C1CCCCC1", "Recorded Number": -0.891}
{"Molecule": "CCOC(=O)[C@H](CC(C)C)NC(=O)CCC1CC(OC(=O)NCc2ccc3c(c2)OCO3)CC2(CCCC(COC(=O)NCCOC)O2)O1 (some centres undefined)", "Recorded Number": -0.359}
{"Molecule": "O=C1C=C[C@@H](O)[C@@H]2[C@@H]3C(=O)N(c4cccc(Oc5ccccc5)c4)C(=O)[C@@H]3CC[C@@H]12", "Recorded Number": -0.72}
{"Molecule": "CC(C)=NO[C@H](C)c1cn([C@@H]2COC[C@H]2O)nn1", "Recorded Number": -0.593}
{"Molecule": "CCOC(=O)[C@H](Cc1ccccc1)NC(=O)CCC1CC(OC(=O)NCCc2ccc(F)cc2)CC2(CCCC(COC(=O)NCCOc3ccccc3)O2)O1 (some centres undefined)", "Recorded Number": -0.123}
